assay text: inhibition of endothelial tube formation, primary screen, imaging, VEGF stimulated, CD31 staining, tube area, NPC library (AID 1117340)
particulars: VEGF-stimulated ADSC/ECFC co-culture, at 10 µM
Calls of active or inactive are those of the source.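 Rule for the calls: active = compound that reduces growth-factor-driven endothelial tube area in a mixed cell culture, no cutoff stated; inactive = the rest.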
Respond only with the outcome that fits, drawn from active, inactive

// param item: NC[C@H]1O[C@H](O[C@H]2[C@H](O[C@@H]3O[C@H](CO)[C@@H](O)[C@H]3O)C(O)[C@H](N)C[C@@H]2N)[C@H](N)[C@@H](O)[C@@H]1O (stereo partly specified) ; yields the recorded call
inactive

What would you report for "COc1cc2nc(Cl)nc(N)c2cc1OC" ?
inactive

What would you report for "C=CCOc1cc(Cl)ccc1C(=O)NCCN(CC)CC" ?
inactive

What would you report for CC(COc1ccccc1)NC(C)C(O)c1ccc(O)cc1 (stereo unspecified) ?
inactive

What would you report for "Cn1c(=O)c2[nH]c(Br)nc2n(C)c1=O" ?
inactive

What would you report for CC(C)(C)NCC(O)c1cc(O)cc(O)c1 (stereo unspecified) ?
inactive

What would you report for "CCN(CC)CCSC(=O)C(c1ccccc1)c1ccccc1" ?
inactive

What would you report for "Oc1ccccc1C=NCc1ccccc1" ?
inactive

What would you report for "CN1CC(=O)NC1=N" ?
inactive

What would you report for "Cc1cccc(C)c1NC(=O)CN1CCCCCC1" ?
inactive

What would you report for CC(NN)c1ccccc1 (stereo unspecified) ?
inactive

What would you report for "N#CSCC(=O)O" ?
inactive

What would you report for "O=C(O)CNC(=O)c1ccccc1I" ?
inactive

What would you report for "N[C@H](C(=O)O)[C@@H](O)c1ccc(O)c(O)c1" ?
inactive

What would you report for "O=C(O)CCCC[P+](c1ccccc1)(c1ccccc1)c1ccccc1" ?
inactive

What would you report for "CCOC(=O)Oc1ccc(CCNC(=O)[C@H](CCSC)NC(C)=O)cc1OC(=O)OCC" ?
inactive

What would you report for "CCN(CC)CCOC(=O)c1ccc(N)cc1" ?
inactive

What would you report for "Cc1ccc(-c2ccccc2C#N)cc1" ?
inactive

What would you report for CC[N+]1(CC)CCC(=C(c2ccccc2)c2ccccc2)C1C (stereo unspecified) ?
inactive

What would you report for "CN(C)CCC=C1c2ccccc2CCc2ccccc21" ?
inactive

What would you report for O=C(O)C1CSC(C(=O)O)N1 (stereo unspecified) ?
inactive

What would you report for "CC(=O)Nc1ccc(S(=O)(=O)Nc2cc(C)on2)cc1" ?
inactive

What would you report for "O=C(/C=C/c1ccccc1)OCc1ccccc1" ?
inactive

What would you report for "COC(=O)/C=C(/C)N" ?
inactive

What would you report for "CCCN(CCc1cccs1)[C@H]1CCc2c(O)cccc2C1" ?
inactive

What would you report for "O=C1CC2(CCCC2)CC(=O)N1" ?
inactive

What would you report for OCC(O)CS (stereo unspecified) ?
inactive

What would you report for "CNc1c2c(nn1C)CCCC2" ?
inactive

What would you report for "c1ccc2[nH]c(-c3cscn3)nc2c1" ?
inactive

What would you report for "CCCCCCCCCCCCCCCC(=O)OCC(COC(=O)CCCCCCCCCCCCCCC)OC(=O)CCCCCCCCCCCCCCC" ?
inactive

What would you report for "O=C(Cn1ccnc1[N+](=O)[O-])NCc1ccccc1" ?
inactive

What would you report for "Nc1nc2ncc(CNc3ccc(C(=O)N[C@@H](CCC(=O)O)C(=O)O)cc3)nc2c(=O)[nH]1" ?
inactive

What would you report for CC(=O)/C=C/C=C1/C2CCC(C2)C1(C)C (stereo unspecified) ?
inactive

What would you report for "CO[C@@H]1[C@@H](O[C@@H]2O[C@H](C)[C@@H](O[C@H]3C[C@@](C)(O)[C@@H](O)[C@H](C)O3)[C@H](N(C)C)[C@H]2O)[C@@H](CC=O)C[C@@H](C)[C@@H](O[C@@H]2CC[C@H](N(C)C)[C@@H](C)O2)/C=C/C=C/C[C@@H](C)OC(=O)C[C@H]1OC(C)=O" ?
inactive

What would you report for "Nc1ccc(/C=C/c2ccc(N)cc2S(=O)(=O)O)c(S(=O)(=O)O)c1" ?
inactive

What would you report for CC(C)(C)C1CCC(CC2=C(O)c3ccccc3C(=O)C2=O)CC1 (stereo unspecified) ?
active

What would you report for "OCCN(CCO)c1nc(N2CCCCC2)c2nc(N(CCO)CCO)nc(N3CCCCC3)c2n1" ?
inactive

What would you report for O=C(CCCN1CCN(c2ccc(F)cc2)CC1)NC1c2ccccc2CSc2ccccc21 (stereo unspecified) ?
inactive

What would you report for "CN1N=C(C(N)=O)CCC1=O" ?
inactive

What would you report for CC(C(=O)O)c1ccc(/C=C2\CCCCC2=O)cc1 (stereo unspecified) ?
inactive

What would you report for "CC(=O)N1CCN(c2ccc(O)cc2)CC1" ?
inactive
